- method description: protein stability index of a GFP-peptide fusion (yeast GPS) (PSI 1-4); higher = more stable; sorted into four equal gates, so the index is relative within each strain
- assay context: doa10∆
recorded metric: protein stability index
// response body must contain only the number

sequence input	protein stability index
NANRVFRTRFQDGTSVV [SMC2]	2.74
EDDDIRSRMLPTITLDD [SNF5]	2.46
LRRGNYAQRIGSGAPVY [HTA1]	2.19
LEKISSSNKDLEDEKMK [SMC4]	3.31
EGSKSHPFGHALVAGIE [RPL27A]	2.73

What protein stability index value was documented for this sequence, SLLERHIPRLIPKQLLD [YJL039C/NUP192] ? 2.11

Next up: MSSTTPKLESVKWQYDP [SNF12] 3.16

Next up: QDKEKIDNLKDTLKENA [ITC1] 2.87

Next up: NGLAIRRAAYGVVRYVM [RPS3] 2.06

Next up: PKGVILYGAPGTGKTLL [RPT2] 3.67

Next up: LKEYQSKIIVFPRDGKA [RPL13B] 2.95

Next up: ELIALNLSEARLVIKEA [RPB4] 3.01

Next up: SMILEAISTDKINPFGF [RRI2] 2.85

Next up: HRTIVIRRAYLHYIPKY [RPS11A] 1.87

Next up: KYLPHAILKLLENMPHP [PRP8] 2

Next up: LATDVTTLNEMFRYKTN [PUP3] 1.85

Next up: STLKSFFTNPNKKRPSS [YOR098C/NUP1] 2.79

Next up: GARFDDGAGGDNEVQRT [RPT1] 3.58

Next up: INCNKETIENVKLQMIK [ECM29] 3.21

Next up: IQLSTVNRQSPLFFVDL [RGR1] 1.59

Next up: QFKKLTHAQRTGLSQIP [PRP8] 2.05

Next up: MTMLTPNYLHLVSSYLN [YML103C/NUP188] 1.82

Next up: NDPEYMDTSDDAFVATA [DLS1] 3.1

Next up: TAFKATVFFLIRVAETR [YJL039C/NUP192] 1.53

Next up: TNHVLEVFSVLGIEAAR [RPO31] 2.21

Next up: YQRKRLVTQHKAKYNTP [RPL5] 3.21

Next up: IYAKYGAKGSTLIVVPF [FAS2] 2.4

Next up: RTKSQVIEEDYDDEQNT [IRR1] 2.4

Next up: IELTSYESIATYASVTG [RPN7] 1.1

Next up: LVLYDAENDVIEATDLG [BRR2] 3.29

Next up: RSQDQENPAFLPGTNNN [SEC65] 2.79

----------
Measured protein stability index values are reported for all entries that follow.
- method description: protein stability index of a GFP-peptide fusion (yeast GPS) (PSI 1-4); higher = more stable; sorted into four equal gates, so the index is relative within each strain
- assay context: pdr5∆
// response body must contain only the number

What protein stability index value was documented for this sequence, KNLSLLAEEVVDNIVNK [SRP68] ? 2.9

----------
- method description: protein stability index of a GFP-peptide fusion (yeast GPS) (PSI 1-4); higher = more stable; sorted into four equal gates, so the index is relative within each strain
- assay context: doa10∆
Each record gets a class by protein stability index: bottom bin = under 2, middle bin = from 2 up to 3, top bin = 3 and over

Record excerpt, results attached:
sequence input	class name
ASVEIVFHDPDHSMILP [SMC3]	middle bin
FVEVERARVTKDLVEIK [RPN5]	top bin
KPDSDIVALSSEEINQY [PRE6]	top bin
NSSEIQSAIRPAGQATQ [RPL4A]	middle bin
LVKALEDIMVHYDNTTR [RPO21]	bottom bin

Band for IAACTGVPDDKWEQTYK [FAS1] ? bottom bin

Next up: GSRMVRELFVMAREHAP [RPT6] bottom bin

Next up: ESLTNSNMFDNSADVDM [YGL100W/SEH1] top bin

Next up: NSLLTIVWRFISENTFP [RPC34] bottom bin

Next up: GSESDDSEGSIKQTSDE [ECM29] top bin

Next up: TRKAARPQKLRASLVPG [RPL6A] bottom bin

Next up: QKMAELEAARSEKQNDE [PRP8] bottom bin

Next up: FTNRSTMMANFEEWIKM [BRN1] middle bin

Next up: TQGGNVNLDNTAVGKAA [RPT5] top bin

----------
- method description: protein stability index of a GFP-peptide fusion (yeast GPS) (PSI 1-4); higher = more stable; sorted into four equal gates, so the index is relative within each strain
- assay context: pdr5∆
Answer No if protein stability index is under 2, and Yes if it is 2 or more.

Record excerpt, results attached:
sequence input	class name
PEDLNSLYIYYLIKLLG [SIR2]	Yes
LSSIEASLKIKNATDLQ [SMC3]	Yes
YDEDPYGFEDESAPITA [RPB2]	Yes
SVFYNIANMVLPPEKIY [SIR2]	No
ERQQDELENFLDNFETK [YJL041W/NSP1]	Yes

Is reported protein stability index greater than or equal to 2 here: PEEATTIFSVMVEWLES [PRP8] No

Next up: VTKEYFQDVYDLTGSEP [FAS1] Yes

----------
- method description: protein stability index of a GFP-peptide fusion (yeast GPS) (PSI 1-4); higher = more stable; sorted into four equal gates, so the index is relative within each strain
- assay context: pdr5∆
recorded metric: protein stability index
// response body must contain only the number

sequence input	value reported
ANVPSTATTGKRKPAKS [RPN4]	2.88
GQGYRKVGIWPYFDYIF [YJL039C/NUP192]	3.21
ELNDNPAWFNNPRKRAI [YMR153W/NUP53]	2.96
LLDAYSHIESDSTSHNN [MED1]	2.93
ATEKKSSSPLAMSETLS [PRE8]	2.77

What protein stability index value was documented for this sequence, KKINRRNETSVDEEDEN [YCG1] ? 3.38

Next up: YQNQFVEFCRNINSTDK [YML103C/NUP188] 2.76

----------
- method description: protein stability index of a GFP-peptide fusion (yeast GPS) (PSI 1-4); higher = more stable; sorted into four equal gates, so the index is relative within each strain
- assay context: ubr1∆
Measured protein stability index values are reported for all entries that follow.
// response body must contain only the number

Illustrative cases are given below, each with its answer.
sequence input	value reported
VLISKLSCEKITHYAVR [RRI1]	1.67
ARVTGGMKVKADRDESS [RPS14B]	3.03
LSSETGIKLALDPNLIT [SRB4]	2.51

// next entry
What protein stability index value was documented for this sequence, VTKEYFQDVYDLTGSEP [FAS1] ? 2.68

----------
Measured protein stability index values are reported for all entries that follow.
- method description: protein stability index of a GFP-peptide fusion (yeast GPS) (PSI 1-4); higher = more stable; sorted into four equal gates, so the index is relative within each strain
- assay context: ubr1∆
// response body must contain only the number

Illustrative cases are given below, each with its answer.
sequence input	protein stability index
STFRLNLSVTSPYNADF [RPO21]	2.93
PISISNAPTFNPKYDTS [YAR002W/NUP60]	3.07
QQSNKLHCCIQLLMGDI [RPN3]	1.84
RGNTKIHSMNENPTPEK [SIR3]	3.31
FGNIMDNLLEMSDHSLD [RRP6]	3.27
YYSLNIDYHKTAKETKM [RPN11]	2.74

What protein stability index value was documented for this sequence, KNDNGGKMNNEVSTSTS [SWI3] ? 2.65

Next up: ILRKSFDFLMNMPNCDY [RPN2] 1.16

Next up: EDEDEDDETPSCEVEEI [SNU114] 2.85

Next up: TNKDNKAELIKPIQNGE [ARP9] 3.16

Next up: KPANASHAIRLGNGVAC [RGR1] 3.01

Next up: EDIVGALRRRVGPSEQN [REC8] 2.43

Next up: VSTKMHRTIVIRRAYLH [RPS11A] 1.12

Next up: EMDSVSKSMKFSRRFDC [CSN9] 2.85

----------
- method description: protein stability index of a GFP-peptide fusion (yeast GPS) (PSI 1-4); higher = more stable; sorted into four equal gates, so the index is relative within each strain
- assay context: doa10∆
Answer criterion not met if protein stability index is under 3, and criterion met if it is 3 or more.

Record excerpt, results attached:
sequence input	class name
MKYLAAYLLLNAAGNTP [RPP2A]	criterion not met
IEKLTDGHLRAPLKHGV [BRR2]	criterion not met
NDLQSETKTKKEKIKGL [SMC4]	criterion met
FGPHVDVNDVLTKYIRS [GRR1]	criterion met
FKIHTAKVKKTGEFDFE [RPT4]	criterion not met
SGELLQGIVRVYSKQAT [MCD1]	criterion not met
LLHERKLLNDLALENGE [NUT1]	criterion not met
FGYPETIANSIILHFAN [YMR153W/NUP53]	criterion not met

Is reported protein stability index greater than or equal to 3 here: NERELNVFARLSRLLSL [RPC82] criterion not met

Next up: INIKYLRLDGHTKSDER [SNF2] criterion met
